Data credit: PubChem BioAssay (NCI)

# Tested on: SK-OV-3 ovarian
# method-summary: NCI tumour cell line growth inhibition, 48 h
attribute-measured: GI50

chem-smiles | GI50
CCN(CC)CCOc1ccc(/C(=C(\C)c2ccc(F)c(OC)c2)c2ccc(Cl)cc2)cc1 | 2.97 µM
CN(C)Cc1c[nH]c2c1C(=O)c1c(c(O)c3ccccc3c1O)C2=O | 52 µM
O=C(CCCN1CC=C(n2c(=O)[nH]c3ccccc32)CC1)c1ccc(F)cc1 | > 100 µM

Consider the additional molecule presented here.
Record summary for O=C(N/N=C\c1cc(Br)ccc1O)c1ccncc1 : reported GI50 = 4.79 µM

* * *

# Tested on: ACHN renal
# method-summary: NCI tumour cell line growth inhibition, 48 h; in the data active means GI50 below about 0.43 µM; inactive means the rest
Hi! Could you answer with just one of these? 1.0 (active), 0.0 (inactive)

compound | class
CCN(CC)CCNCC(=O)Oc1ccc(/C=C/C(=O)CC(=O)/C=C/c2ccc(OC(=O)CNCCN(CC)CC)c(OC)c2)cc1OC | 0.0
Cc1c(C2Nc3ccccc3C2C)[nH]c2ccccc12 (stereo not drawn) | 0.0
CC(=O)c1c(CBr)n([O-])c2ccccc2[n+]1=O | 0.0
COc1cc(NC(C)CCCN)c2nccc(C)c2c1OC (stereo not drawn) | 0.0
CN(C)c1ccc2nc3ccc(=O)cc-3sc2c1 | 1.0
COC(=O)[C@@H](NC(=O)[C@@H](OC)[C@@H]1Cc2cc3cc(OC4CC(OC5CC(O)C(O)C(C)O5)C(O)C(C)O4)c(C)c(O)c3c(O)c2C(=O)[C@H]1OC1CC(OC2CC(OC3CC(C)(O)C(O)C(C)O3)C(O)C(C)O2)C(O)C(C)O1)C(C)C (stereo partly drawn) | 1.0
O=C1/C(=C\c2cccn2Cc2ccccc2)c2ccccc2N1c1c(Cl)cccc1Cl | 0.0

Please find the next compound below.
QUERY: GET /call?item= O=c1[nH]c2cc(Cl)ccc2n1C1CCN(CCCC(c2ccc(F)cc2)c2ccc(F)cc2)CC1 returns the recorded outcome of this test.
RESULT: 0.0
